Source: PubChem BioAssay (NCI)

# Test system: HOP-62 NSCLC
# RUN_DESCRIPTION: NCI tumour cell line growth inhibition, 48 h
TEST_READOUT: TGI

Sample answers from the record:
{"columns": ["COMPOUND", "TGI"],
 "data": [
  ["Brc1ccc2c(c1)C1(c3cc(Br)ccc3-2)c2cc(Br)ccc2-c2ccc(Br)cc21", "> 100 µM"],
  ["CC(=O)NC1C(OCc2ccccc2)OC(COC(=O)CCCCCCCCCCNC(=O)c2cccc3c(=O)c4ccccc4[nH]c23)C(O)C1OC(C)C(=O)NC(C)C(=O)NC(CCC(N)=O)C(N)=O (centres undefined)", "> 100 µM"],
  ["CNc1ccc2nc(-c3ccc(OC(=O)N(C)C)cc3)cn2c1", "32.9 µM"]
]}

input: Return TGI (reported value) for this compound: COc1cc(C2SCC(=O)N2NC(=O)c2ccc(NC(C)=O)cc2)cc(OC)c1OC (centres undefined)
output: > 100 µM

input: Return TGI (reported value) for this compound: `COC(=O)[C@H](Cc1ccccc1)NC(=O)c1csc([C@@H](C[C@H](C(C)C)N(C)C(=O)[C@@H](NC(=O)[C@H]2CCCCN2C)C2CC2)OC(C)=O)n1`
output: > 25 µM

input: Return TGI (reported value) for this compound: `Oc1cccc(-c2nc3ccccc3s2)c1`
output: > 100 µM

---

# Test system: LOX IMVI melanoma
# RUN_DESCRIPTION: NCI tumour cell line growth inhibition, 48 h
TEST_READOUT: TGI

{"columns": ["COMPOUND", "TEST_READOUT", "REPORTED_VALUE"],
 "data": [
  ["CCCCN(CCCC)C(=NCc1ccccc1)NC#N", "TGI", "30.4 µM"]
]}

input: Return TGI (reported value) for this compound: CC(=O)O[C@]12CCCCCCC1C1(O)C(O)CCC[C@H]12 (stereo partly specified)
output: > 100 µM

input: Return TGI (reported value) for this compound: N#CC1c2ccccc2-c2ccccc2N1C(=O)c1ccccc1 (stereo unspecified)
output: > 94.3 µM

input: Return TGI (reported value) for this compound: `Cc1cc(S(=O)(=O)Nc2n[nH]c(Nc3ccccc3)n2)c(S)cc1Cl`
output: > 10 µM

input: Return TGI (reported value) for this compound: CCOC(=O)CCC1(C(=O)OC)CCCC1=O (stereo unspecified)
output: > 100 µM

input: Return TGI (reported value) for this compound: `S=C(Nc1ccccc1)Nc1[nH]c(=S)sc1-c1nc2ccccc2[nH]1`
output: > 100 µM

---

# Tested on: SK-OV-3 ovarian
# RUN_DESCRIPTION: NCI tumour cell line growth inhibition, 48 h
GI50 values by entry

Sample answers from the record:
{"columns": ["COMPOUND", "REPORTED_VALUE"],
 "data": [
  ["O=C1c2c(O)cccc2C(C(=O)CCCCC(=O)C2c3cccc(O)c3C(=O)c3c(O)cccc32)c2cccc(O)c21", "0.921 µM"],
  ["COc1cccc(-c2nn(-c3ccccc3)cc2-c2ccnc(NCCNC(=O)Nc3ccc(Cl)c(Cl)c3)c2)c1", "4.06 µM"]
]}

input: Return GI50 (reported value) for this compound: COc1ccccc1C1C(C#N)=C(N)OC2=C1C(=O)CCC2 (stereo not given)
output: > 100 µM

input: Return GI50 (reported value) for this compound: `COc1ccc2nc3ccc(OC)cc3c(SCCCN)c2c1`
output: 14.2 µM

input: Return GI50 (reported value) for this compound: COC(=O)C(C)N1C(=O)c2ccccc2I1OC(C)=O (stereo not given)
output: > 100 µM

---

# Tested on: NCI-H23 lung
# RUN_DESCRIPTION: NCI tumour cell line growth inhibition, 48 h
TEST_READOUT: TGI

{"columns": ["COMPOUND", "TARGET_SYSTEM", "TGI"],
 "data": [
  ["Cc1ccc(NCSc2ccc(Cl)cc2)cc1", "NCI-H23 lung", "> 100 µM"],
  ["N#Cc1c2c(c(N=[N+]=[N-])n3c1nc1ccccc13)CCCC2", "NCI-H23 lung", "6.27 µM"]
]}

input: Return TGI (reported value) for this compound: `Brc1ccc2c(c1)C1(c3cc(Br)ccc3-2)c2cc(Br)ccc2-c2ccc(Br)cc21`
output: > 100 µM

input: Return TGI (reported value) for this compound: O=C1c2cc([N+](=O)[O-])ccc2NC2C(O)c3ccccc3N12 (stereo unspecified)
output: 72.5 µM

input: Return TGI (reported value) for this compound: `CNc1ccc2nc(-c3ccc(OC(=O)N(C)C)cc3)cn2c1`
output: 40.4 µM

input: Return TGI (reported value) for this compound: `COc1cc(C(=O)Nc2nnc(S(N)(=O)=O)s2)cc(OC)c1OC`
output: > 100 µM

input: Return TGI (reported value) for this compound: Cc1cnc(Cl)nc1C(C#N)c1nc2ccccc2n1C (stereo unspecified)
output: > 100 µM

input: Return TGI (reported value) for this compound: `O=C1CCSSCCC(=O)Nc2ccccc2N1`
output: > 100 µM

input: Return TGI (reported value) for this compound: [N-]=[N+]=NC1(c2ccccc2)C(=O)Nc2ccccc2C1=O (stereo unspecified)
output: > 100 µM

input: Return TGI (reported value) for this compound: COc1cc(C2SCC(=O)N2NC(=O)c2ccc(NC(C)=O)cc2)cc(OC)c1OC (stereo unspecified)
output: > 100 µM

input: Return TGI (reported value) for this compound: `COc1ccc([Se]c2ccc(OC)cc2OC)c(OC)c1`
output: > 100 µM

---

# Tested on: SK-MEL-5 melanoma
# RUN_DESCRIPTION: NCI tumour cell line growth inhibition, 48 h; in the data active = GI50 below about 0.43 µM; inactive = the rest
Assign a class; possible classes are active, inactive

As a guide, the following entries are already answered.
{"columns": ["MOLECULE", "TARGET_SYSTEM", "CLASS"],
 "data": [
  ["CCCCCCCCCCCCCCCC[N+]1(CC)CCCC1", "SK-MEL-5 melanoma", "active"],
  ["N#CC1c2ccccc2-c2ccccc2N1C(=O)c1ccccc1 (centres undefined)", "SK-MEL-5 melanoma", "inactive"],
  ["Oc1ccc2ccccc2c1-c1nnc(CCCCCCCCc2nnc(-c3c(O)ccc4ccccc34)o2)o1", "SK-MEL-5 melanoma", "inactive"],
  ["CCN(CC)CCC(=O)Nc1ccc(Cn2nnc3c2C(=O)c2nnn(Cc4ccc(NC(=O)CCN(CC)CC)cc4)c2C3=O)cc1", "SK-MEL-5 melanoma", "inactive"],
  ["O=C(/C=C/N1CCN(c2cccc(C(F)(F)F)c2)CC1)c1ccc(Cl)cc1Cl", "SK-MEL-5 melanoma", "inactive"],
  ["C/C(=C(/c1ccc(O)cc1)c1ccc(OCCN2CCCC2)cc1)c1ccccc1", "SK-MEL-5 melanoma", "inactive"]
]}

input: Any idea what this test logged for `Cc1ccc([P+](Cc2ccc([N+](=O)[O-])cc2)(c2ccc(C)cc2)c2ccc(C)cc2)cc1` ?
output: inactive

input: Any idea what this test logged for `C[C@@H](NC(=O)Cc1cc(F)cc(F)c1)C(=O)N[C@@]1(C)N=C(c2ccccc2)c2ccccc2N(C)C1=O` ?
output: inactive

input: Any idea what this test logged for `O=C(N[C@@H]1CCCc2ccccc21)[C@H](CCC(=O)N1CCN(C2CCCCC2)CC1)N1C(=O)[C@@H](N2C(=O)OC[C@@H]2c2ccccc2)[C@H]1/C=C/c1ccccc1` ?
output: inactive

---

# System: RXF 393 renal
# RUN_DESCRIPTION: NCI tumour cell line growth inhibition, 48 h
TGI values by entry

{"columns": ["COMPOUND", "REPORTED_VALUE"],
 "data": [
  ["COC(=O)c1c(C)oc2ccc(OC(C)=O)cc12", "> 100 µM"]
]}

input: Look up and report TGI, with RXF 393 renal as system, for `Cc1nnc([S-])s1.[Au+].c1ccc([PH+](c2ccccc2)c2ccccc2)cc1`
output: 2.53 µM

input: Look up and report TGI, with RXF 393 renal as system, for `COc1ccc2nc3ccc(OC)cc3c(SCCCN)c2c1`
output: 9.85 µM

input: Look up and report TGI, with RXF 393 renal as system, for COc1ccc(C2CC(c3c(C)nn(-c4ccccc4)c3-c3ccc(C)cc3O)=NN2c2ccccc2)cc1 (stereo unspecified)
output: > 100 µM

input: Look up and report TGI, with RXF 393 renal as system, for `CC(C)=CCN(N=O)c1ncnc2nc[nH]c12`
output: > 100 µM

input: Look up and report TGI, with RXF 393 renal as system, for `CN(C)c1ccc(C(=NNC(=O)c2cc3ccccc3[nH]2)c2ccc(N(C)C)cc2)cc1`
output: 15 µM

input: Look up and report TGI, with RXF 393 renal as system, for `CCOC(=O)c1c2c(n(C)c1-c1ccccc1)C(=O)C(C)=CC2=O`
output: 23.6 µM

input: Look up and report TGI, with RXF 393 renal as system, for `O=C(c1cccs1)N(C(=S)N1CCN(c2ccccc2)CC1)c1ccccc1`
output: > 100 µM

input: Look up and report TGI, with RXF 393 renal as system, for CC(C)(C)OC(=O)NC(Cc1ccccc1)C(=O)N[C@H]1c2ccsc2/C(=N/O)[C@H]1O (stereo partly specified)
output: > 100 µM

input: Look up and report TGI, with RXF 393 renal as system, for `Cc1cc(S(=O)(=O)Nc2n[nH]c(Nc3ccccc3)n2)c(S)cc1Cl`
output: > 10 µM

input: Look up and report TGI, with RXF 393 renal as system, for COC(=O)C(C)N1C(=O)c2ccccc2I1OC(C)=O (stereo unspecified)
output: > 100 µM

input: Look up and report TGI, with RXF 393 renal as system, for O=C1c2cc(Cl)ccc2-n2c(noc2=O)C2CSCN12 (stereo unspecified)
output: > 100 µM

input: Look up and report TGI, with RXF 393 renal as system, for `Cc1cc(NS(=O)(=O)c2ccc(Nc3c4ccccc4nc4c(C(=O)NCCN(C)C)ccc(Cl)c34)cc2)no1`
output: 22.8 µM

input: Look up and report TGI, with RXF 393 renal as system, for `Brc1ccc2c(c1)C1(c3cc(Br)ccc3-2)c2cc(Br)ccc2-c2ccc(Br)cc21`
output: > 100 µM
